MEASURED_TARGET: IRAK4 kinase (Homo sapiens, UniProt Q9NWZ3)
Sequence (Q9NWZ3 whole entry): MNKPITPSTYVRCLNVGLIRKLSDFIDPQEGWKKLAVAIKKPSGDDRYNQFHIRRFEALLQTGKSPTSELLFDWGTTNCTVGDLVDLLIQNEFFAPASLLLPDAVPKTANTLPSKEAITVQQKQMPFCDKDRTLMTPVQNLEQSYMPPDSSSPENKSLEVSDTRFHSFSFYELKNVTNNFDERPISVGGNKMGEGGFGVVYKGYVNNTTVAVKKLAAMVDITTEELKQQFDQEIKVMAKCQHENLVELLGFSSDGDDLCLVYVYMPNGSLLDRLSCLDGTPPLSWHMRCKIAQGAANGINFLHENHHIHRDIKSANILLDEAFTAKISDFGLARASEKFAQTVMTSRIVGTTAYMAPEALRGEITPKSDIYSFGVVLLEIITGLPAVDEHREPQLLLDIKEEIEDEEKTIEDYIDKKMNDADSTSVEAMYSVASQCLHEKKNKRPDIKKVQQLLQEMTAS
ASSAY_NAME: IRAK4 kinase activity test (KinEASE-STK S1 HTRF kit)
Type: biochemical
CONDITION_SUMMARY: 2.5 nM kinase, 1 μM biotinylated polypeptide substrate, 7 μM ATP, 37° C. 120 min
pIC50: −log10 of the molar value.
OUTCOME_MEASURE: pIC50

1) COc1ccc(C(=O)N2CC3(CCN(CCN4CCC(n5cc6cc(NC(=O)c7cccc(C(F)(F)F)n7)c(C(C)(C)O)cc6n5)CC4)CC3)C2)cc1N1CCC(=O)NC1=O: 8.10
2) COc1cc2nn([C@H]3CC[C@H](CN(C)CC4CCN(C(=O)c5ccc(Cl)c(N6CCC(=O)NC6=O)c5)CC4)CC3)cc2cc1NC(=O)c1cccc(C(F)(F)F)n1: 7.95
3) CC(C)(O)c1cc2nn(C3CCN(CC4CCC5(CC4)CCN(C(=O)c4ccc(F)c(N6CCC(=O)NC6=O)c4)CC5)CC3)cc2cc1NC(=O)c1cccc(C(F)(F)F)n1: 7.63
4) CC(C)(O)c1cc2nn(C3CCN(CCC4CCC5(CC4)CCN(C(=O)c4ccc(F)c(N6CCC(=O)NC6=O)c4)CC5)CC3)cc2cc1NC(=O)c1cccc(C(F)(F)F)n1: 7.78
5) COc1cc2nn(C3CCN(CC4CCC5(CC4)CCN(C(=O)c4ccc(F)c(C6CCC(=O)NC6=O)c4)CC5)CC3)cc2cc1NC(=O)c1cccc(C(F)(F)F)n1 (centres unmarked): 7.41

Data origin, for the record: patent US20230234936A1
